Target: Glutamate receptor ionotropic, AMPA (Rattus norvegicus, UniProt P19490+P19491+P19492+P19493)
Assay: In vitro binding assay for the displacement of [3H]AMPA from AMPA receptor
In this section, each of the molecules is paired with its reported IC50.

O=C(NCc1cc(Br)cc2nc(O)c(O)nc12)OCc1ccccc1; ~10 µM

Please report the recorded IC50 for O=C(Cc1cccc([N+](=O)[O-])c1)NCc1cc(Br)cc2[nH]c(=O)c(=O)[nH]c12 .
> 10 µM

IC50 lookup needed for CC(C(=O)NCc1cc(Br)cc2nc(O)c(O)nc12)c1ccccc1 (stereo not given) , thanks.
~10 µM

I would be grateful if you could share the reported IC50 for Cc1ncccc1C(=O)NCc1cc(Br)cc2nc(O)c(O)nc12 .
~10 µM

What does the data say about its IC50? Entry: O=C(Cc1ccccc1)NCc1cc(P(=O)(O)O)cc2[nH]c(=O)c(=O)[nH]c12
> 10 µM
